Some compounds, each annotated with its measured TGI.
System: SF-539 CNS
measurement_protocol: NCI tumour cell line growth inhibition, 48 h
property_name: TGI

compound=COc1ccccc1CNCCCN1C(=O)c2ccc3c4c(ccc(c24)C1=O)C(=O)N(CCCN)C3=O property_name=TGI obs_value="2.5 µM"
compound=ON=C(CC(O)(C(F)(F)Cl)C(F)(F)Cl)CC(O)(C(F)(F)Cl)C(F)(F)Cl property_name=TGI obs_value="> 10 µM"
compound=Cc1cccc(N/C(Sc2ccccc2)=C(/C(Cl)=C(Cl)Cl)[N+](=O)[O-])c1 property_name=TGI obs_value="31.3 µM"
compound=C#CC1(O)CCCCCCCCC2(CCCCCCCC1)OCCO2 property_name=TGI obs_value="31.8 µM"
compound="COc1ccc(C2=CC(c3ccc(OC)cc3Br)N3C=CSC3=N2)cc1 (stereo not given)" property_name=TGI obs_value="17.1 µM"
